ASSAYED_TARGET: T1, HIDE1_HH-1 (Human ECD + human IgG1 Fc mutated C220S at hinge), without SP (human)
T1 construct: Batch #280 in the Serotec and phage display work; also called HIDE1 hECD-hIg; HIDE1 (H:H) recombinant Fc fusion protein
T1 sequence (chain, as listed by the source C220S C220S limits assumed): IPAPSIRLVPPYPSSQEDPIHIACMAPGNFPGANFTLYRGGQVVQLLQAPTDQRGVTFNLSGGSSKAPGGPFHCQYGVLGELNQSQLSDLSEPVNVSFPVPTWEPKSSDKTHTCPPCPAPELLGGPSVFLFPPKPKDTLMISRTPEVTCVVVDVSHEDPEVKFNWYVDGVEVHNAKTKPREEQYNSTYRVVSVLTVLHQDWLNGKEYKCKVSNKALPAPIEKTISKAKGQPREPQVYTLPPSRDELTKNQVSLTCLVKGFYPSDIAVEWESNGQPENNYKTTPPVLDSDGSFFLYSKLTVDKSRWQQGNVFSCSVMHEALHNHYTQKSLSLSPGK
ASSAY_COMMENT: SPR (ProteOn), Fab PPE over captured HIDE1-HH-1, 1:1 fit
Measured log10 of kon, listed per entry.
OBSERVED_PROPERTY: log10 of kon (log10 of the value in M⁻¹ s⁻¹)

| BINDER | log10 of kon |
| --- | --- |
| CPA.12.009 Fab (A10 S398-02.A04) (Fab, V domains shown, XOMA031 library Fab in periplasmic extract) VH: QMQLVQSGAEVKKPGASVKVSCKASGYTFTTHAFSWVRQAPGLGLEWMGWISTYNGNTKYEQKFQGRVTLTTDSSTNTAYMELRSLRSDDTAVYYCVRDSRAFDVWGQGTMVTVSS VL: DIQLTQSPSFLSASVGDRVTITCRASQGINSYLAWYQQKPGAAPKLLIYAASTLQSGVPSRFSGSGSGTEFTLTISSLQPEDFATYYCQQLNTYPLIFGQGTRLEIKR | 6.15 |
| CPA.12.006 Fab (A07 S398-01.D09) (Fab, V domains shown, XOMA031 library Fab in periplasmic extract) VH: EVQLVESGGGVVQPGRSLRLSCAASGFTFSSFAMHWVRQAPGKGPEWLGIILYEGGHVVYADSVRGRLTISRDNSKNTLYLQMDSLRDEDTAVYYCAKGFYHAFDVWGQGTMVTVSS VL: QAVLTQPASLSASPGASASLTCTLRSGINVGTYRIYWYQQKPGSPPQYLLRYKSDSDKQQGSGVPSRFSGSKDASANAGILLISGLQSEDEADYYCMIWHSSAWVFGGGTQLTVLG | 4.83 |
| CPA.12.011 Fab (B03 S400-01.E01) (Fab, V domains shown, XOMA031 library Fab in periplasmic extract) VH: EVQLVESGGGLVQPGGTLRLSCVVSGFTFSSYAMSWVRQAPGKGLEWVSGISGSGGSTYISSGRTYRSTYYADSVKGRFTIARDNSENTLFLQLNSLRAEDTAIYYCAKVNSGEYAHTFDYWGQGTLVTVSS VL: DIQMTQSPSSLSASVGDRVTITCRASQGISNYLVWYQQKPGKAPKSLIYAASSLQSGVPSRFSGSGSGTDFTLTISSLQPEDFATYYCQQYNYYPITFGQGTRLEIKR | 5.46 |
| CPA.12.005 Fab (A06 S397-01.H07) (Fab, V domains shown, XOMA031 library Fab in periplasmic extract) VH: QVQLVESGGGVVQPGRSLRVSCAVSGFTFSSYGMHWVRQAPGGGLEWVAVMSYEGSFRHYADSVKGRFTISRDNSKNTLFLQMDSLRAEDTAVYYCARDRPAGYTSGWGILDYWGQGTLVTVSS VL: EIVMTQSPATLSLSPGERATLSCRASQSVSSYLAWYQQKPGQAPRLLIYDASNRATGIPARFSGSGSGTDFTLTISSLEPEDFAVYYCQQRSNWPLTFGGGTKVDIKR | 5.64 |
| CPA.12.014 Fab (B12 S404-01.E06) (Fab, V domains shown, XOMA031 library Fab in periplasmic extract) VH: QVTLKESGPALVTPTQNLTLTCTVSGGSISSSSYYWGWIRQPPGKGLEWIGSIYYSGSTYYNPSLKSRVTISVDTSKNQFSLKLSSVTAADTAVYYCARRRNSSGWFYFDYWGQGTLVTVSS VL: QSVLTQPPSVSGAPRQRVTISCSGSRSNIGDNAVNWYQHPPGKAPKLLIYYDDLLPSGVSDRFSGSKSGTSASLAISGLQSEDEADYYCATWDDSLNGHVFGTGTKLTVLG | 5.00 |
